measured-on: human glucocorticoid receptor-α [GRX] isoform (Homo sapiens, UniProt P04150)
Construct: host or cells: insect SF21 cells (baculovirus)
Sequence (P04150 whole entry, canonical isoform): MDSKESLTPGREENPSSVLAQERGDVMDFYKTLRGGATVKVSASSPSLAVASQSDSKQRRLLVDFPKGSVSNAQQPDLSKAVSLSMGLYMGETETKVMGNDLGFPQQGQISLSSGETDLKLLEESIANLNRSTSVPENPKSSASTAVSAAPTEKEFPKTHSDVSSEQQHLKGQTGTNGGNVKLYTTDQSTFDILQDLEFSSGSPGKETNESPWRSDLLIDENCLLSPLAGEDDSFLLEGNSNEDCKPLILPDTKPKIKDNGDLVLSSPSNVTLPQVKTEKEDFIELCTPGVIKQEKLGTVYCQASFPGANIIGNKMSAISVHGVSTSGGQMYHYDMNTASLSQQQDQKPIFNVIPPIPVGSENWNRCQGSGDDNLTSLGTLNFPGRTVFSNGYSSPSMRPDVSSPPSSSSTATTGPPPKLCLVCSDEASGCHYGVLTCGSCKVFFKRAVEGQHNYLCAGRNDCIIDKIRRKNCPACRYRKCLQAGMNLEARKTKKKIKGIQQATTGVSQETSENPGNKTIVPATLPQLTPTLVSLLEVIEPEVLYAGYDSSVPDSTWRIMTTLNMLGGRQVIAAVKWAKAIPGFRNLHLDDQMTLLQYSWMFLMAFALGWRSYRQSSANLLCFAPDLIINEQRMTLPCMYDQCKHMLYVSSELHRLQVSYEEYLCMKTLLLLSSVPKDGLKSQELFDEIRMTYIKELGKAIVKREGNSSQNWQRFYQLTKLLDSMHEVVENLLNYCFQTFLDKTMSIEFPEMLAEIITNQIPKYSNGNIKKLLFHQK
run-description: Radioligand binding with human glucocorticoid receptor cytosol ([3H]-dexamethasone competition)
test-parameters: GRX cytosol expressed in insect SF21 cells, [3H]-Dex ~0.9 nM, 4° C. overnight; Ki by Cheng-Prusoff, KL ~[…]; read-out: Ki (nM) GR
# class assignment by measured Ki: group A (below 1 nM), group B (1 nM to below 9 nM), group C (9 nM or more)

Previously resolved entries follow.
C=Cc1cccc2oc(=O)c3c4c(ccc3c12)NC(C)(C)C=C4C [Example 339]    group C
CC1=CC(C)(C)Nc2ccc3c(c21)C(C1CCCC1)Oc1ccc(O)c(Cl)c1-3 (single isomer, unassigned; (-)) [Example 422]    group A
C=Cc1cccc2c1-c1ccc3c(c1C(C1C=CCCC1)O2)C(C)=CC(C)(C)N3 (centres unmarked) [Example 340]    group B

Just checking, what class would you give COc1c(O)ccc2c1-c1ccc3c(c1[C@H]([C@@H]1C=CCCC1)O2)C(C)=CC(C)(C)N3 [Example 272] here?
group A

Same again, this time with COc1cccc2c1-c1ccc3c(c1C([C@H]1C=C(CSC)CCC1)O2)C(C)=CC(C)(C)N3 (stereo in doubt) [Example 161]
group B
